Reported MIC values follow for various compounds
System: Kluyveromyces marxianus
Assay: Antifungal activity against Candida pseudotropicalis by dilution method
Assay type: functional

• CCCCCCCC/C=C\CCCCCCCC(=O)OC(COC(=O)CCCCCCCCC)CO[C@@H]1O[C@H](CO)[C@H](O)[C@H](O)[C@H]1O (stereo partly drawn) = > 128 µg/mL
• CC/C=C\C/C=C\C/C=C\CCCCCCCC(=O)OCC(CO[C@@H]1O[C@H](CO)[C@@H](O)[C@H](O)[C@H]1O)OC(=O)CCCCCCC/C=C\C/C=C\C/C=C\CC (stereo partly drawn) = > 128 µg/mL

Pending compound:
Entry CCCCC/C=C\C/C=C\CCCCCCCC(=O)OC(COC(=O)CCCCCCCCC)CO[C@@H]1O[C@H](CO)[C@H](O)[C@H](O)[C@H]1O (stereo partly drawn) ; MIC = > 128 µg/mL
